ASSAY_REMARKS: NCI Yeast Anticancer Drug Screen. Data for the cln2 rad14 strain (AID 165);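 also: 0% = growth equal to vehicle treated cultures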
CONDITION_NOTES: S. cerevisiae cln2 rad14 strain, at 50.0 µM (retest, dose inferred, filed as 5.0), hits give high values
Protocol: Growth inhibition of yeast strains with defined genetic alterations is measured as a screen for potential anti-cancer activity. Selected strains with alterations in DNA damage repair or cell cycle control were exposed to compounds and growth inhibition was measured relative to vehicle treated controls. The strain used in this assay is cln2 rad14
About 79,000 compounds went through this panel and 15% of them were active in at least one assay; those are over-represented in the sample as a whole.
PROPERTY_NAME: growth inhibition (%)
Report as a plain number; the unit % is understood.

[
  {
    "COMPOUND": "Nc1nc(N)c(-c2ccc(Cl)c(Cl)c2)c(CCc2ccc(CNC(=O)c3ccc(S(=O)(=O)F)cc3)cc2)n1",
    "RESULT_UNIT": "%",
    "growth inhibition": 88
  },
  {
    "COMPOUND": "CC1CN=C(Nc2ccccc2)S1 (centres undefined)",
    "RESULT_UNIT": "%",
    "growth inhibition": 37
  },
  {
    "COMPOUND": "NC(=O)/C=C/C(=O)O (tested in a mixture with another compound)",
    "RESULT_UNIT": "%",
    "growth inhibition": 1
  },
  {
    "COMPOUND": "CCOC(=O)C1=C(C)NC(=O)NC1c1ccc(N(CCCl)CCCl)cc1Cl (centres undefined)",
    "RESULT_UNIT": "%",
    "growth inhibition": 74
  },
  {
    "COMPOUND": "CC12CCC3C(CCC4CC(N5CCCCC5)=CCC43C)C1CCC2O (centres undefined)",
    "RESULT_UNIT": "%",
    "growth inhibition": 98
  },
  {
    "COMPOUND": "CSc1ncc(COP(=S)(OCc2cnc(SC)nc2N)OCc2cnc(SC)nc2N)c(N)n1",
    "RESULT_UNIT": "%",
    "growth inhibition": -3
  },
  {
    "COMPOUND": "c1cc[c]([Sn]([c]2ccccc2)([c]2ccccc2)[c]2ccccc2)cc1",
    "RESULT_UNIT": "%",
    "growth inhibition": -4
  },
  {
    "COMPOUND": "O=C(CCN1CC1)NCCc1ccccc1",
    "RESULT_UNIT": "%",
    "growth inhibition": 73
  }
]

query: growth inhibition lookup needed for CN1CC(Br)(Br)C(=O)N(C)C1=O , thanks.
result: 99

query: growth inhibition lookup needed for CCOP(=O)(OCC)/C(C#N)=C/c1cccc(C)c1 , thanks.
result: 9

query: growth inhibition lookup needed for O=C(/C=C(\c1ccccc1)N1CC1)c1ccccc1 , thanks.
result: 12

query: growth inhibition lookup needed for O=C(CCCC(=O)NNC(=O)Nc1cccc(S(=O)(=O)F)c1)NNC(=O)Nc1cccc(S(=O)(=O)F)c1 , thanks.
result: -8

query: growth inhibition lookup needed for COc1cccc2c1C(=O)c1c(O)c3c(c(O)c1C2=O)C[C@@](O)(/C(C)=N\O)C[C@@H]3OC1CC(N)C(O)C(C)O1 (some centres undefined) , thanks.
result: 18

query: growth inhibition lookup needed for Nc1c(Br)cc(Br)c2c1C(=O)c1ccccc1C2=O , thanks.
result: 3

query: growth inhibition lookup needed for S=P(Nc1ccccc1)(Oc1ccccc1)c1ccccc1 (centres undefined) , thanks.
result: 87

query: growth inhibition lookup needed for CC(CCS(C)(=O)=O)([N+](=O)[O-])[N+](=O)[O-] , thanks.
result: 99

query: growth inhibition lookup needed for O=C1C(F)=C(N2CC2)C(=O)C(F)=C1N1CC1 , thanks.
result: 99

query: growth inhibition lookup needed for O=C(c1ccccc1)c1c(CC(O)c2ccncc2)n(C(=O)c2ccccc2)c2ccccc12 (centres undefined) , thanks.
result: 96

query: growth inhibition lookup needed for C[n+]1[se]nc2cc(C(=O)c3ccccc3)ccc21 (tested in a mixture with another compound) , thanks.
result: 99

query: growth inhibition lookup needed for ClC1=C(Cl)C2(Cl)C(C3CO3)CC1(Cl)C2(Cl)Cl (centres undefined) , thanks.
result: -13

query: growth inhibition lookup needed for CNC(=O)ON(C(C)=O)C(=O)NC , thanks.
result: 99

query: growth inhibition lookup needed for Oc1cccnc1[Se] , thanks.
result: 6

query: growth inhibition lookup needed for COc1cc(OC)c(OC)cc1/C=C/[N+](=O)[O-] , thanks.
result: 39

query: growth inhibition lookup needed for CC/C(=C(/CC)c1ccc(OP(N)(=O)N(CCCl)CCCl)cc1)c1ccc(OP(N)(=O)N(CCCl)CCCl)cc1 (centres undefined) , thanks.
result: 31
